# tested.system: T1, HTRA3, P83110
# T1 sequence (P83110 354-453, limits assumed, looked up): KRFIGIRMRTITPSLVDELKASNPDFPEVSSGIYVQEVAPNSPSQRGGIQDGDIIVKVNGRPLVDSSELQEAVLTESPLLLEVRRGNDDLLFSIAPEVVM
# method.description: holdup assay
# Set-up: key: below the threshold = too weak to quantify, mostly under pKd 3.1 to 4
# condition.info: plain residues with an end cap or a label only (N-terminal biotin on a linker: ado-ado)
parameter: pKd

• PSHPRLQTHV [KIRREL2, Q6UWL6] = below the threshold
• EDPRVEVTQF [SLC22A9, Q8IVM8] = below the threshold
• MHIQEKGFHV [EPHA6, Q9UF33] = 3.61
• RSSGGDDFWF [KCNV1, Q6PIU1] = 4.37
• NTLNRKTTPV [CACNG8, Q8WXS5] = below the threshold
• AEASVACSLC [PTGIR, P43119] = 4.15
• KRPEMTSSSV [MUC3A, MUC3B, Q02505;Q9H195] = below the threshold
• GEDRSPPTAL [MKNK1, Q9BUB5] = below the threshold
